B1: Caulobacter ParB omega fusion; a variant is named by its letters at X, in order, B8GW30 (parent)
chain: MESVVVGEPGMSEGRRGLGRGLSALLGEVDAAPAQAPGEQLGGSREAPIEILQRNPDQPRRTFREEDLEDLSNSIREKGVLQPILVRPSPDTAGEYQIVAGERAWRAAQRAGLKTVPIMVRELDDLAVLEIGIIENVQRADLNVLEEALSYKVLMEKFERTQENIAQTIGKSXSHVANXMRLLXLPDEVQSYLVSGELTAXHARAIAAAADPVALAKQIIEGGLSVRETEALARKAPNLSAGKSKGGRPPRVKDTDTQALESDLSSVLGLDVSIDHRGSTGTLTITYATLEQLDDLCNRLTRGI

Variants of: B1
test: one-hybrid fitness for binding parS DNA (scaled: cognate 1, non-cognate 0); higher = stronger binding
condition_context: with parS DNA site
The full ranking holds about 81,000 sequences; the median of “one-hybrid fitness for binding parS DNA” is about -0.17, and the highest 2% start at about 0.51. Shown is part of a subset that was picked to be rich in the highest values.
// one-hybrid fitness for binding parS DNA lookup, one value per entry
measurement_label: one-hybrid fitness for binding parS DNA

INSERT INTO assay_data (mutation_key, observed_value) VALUES
  ('RLKN', 0.458),
  ('QVAA', '≤ 0.2'),
  ('PLPR', '≤ 0.2'),
  ('IPLI', '≤ 0.2'),
  ('RSDT', 0.696),
  ('RLLP', '≤ 0.2'),
  ('REDT', '≤ 0.2'),
  ('RLLD', 0.231),
  ('RALC', 0.968),
  ('LKTR', '≤ 0.2'),
  ('TTSA', '≤ 0.2'),
  ('RMLR', '≤ 0.2'),
  ('IRCS', '≤ 0.2'),
  ('WPRR', '≤ 0.2'),
  ('RPYT', '≤ 0.2'),
  ('RAQP', '≤ 0.2'),
  ('RLVS', 1.03),
  ('RAYK', '≤ 0.2'),
  ('ETTA', '≤ 0.2'),
  ('LALC', '≤ 0.2'),
  ('MWPC', '≤ 0.2'),
  ('RSNN', 0.445),
  ('YSYS', '≤ 0.2'),
  ('TASY', '≤ 0.2'),
  ('HMAN', '≤ 0.2'),
  ('NLVV', '≤ 0.2'),
  ('RAYC', 0.99),
  ('RLKD', '≤ 0.2'),
  ('GLLA', '≤ 0.2'),
  ('QSQF', '≤ 0.2'),
  ('RHLP', '≤ 0.2'),
  ('RCYT', 0.963),
  ('RSDM', '≤ 0.2'),
  ('FALR', '≤ 0.2'),
  ('RVPD', '≤ 0.2'),
  ('RLYM', 0.364),
  ('RALM', 0.34),
  ('RHLN', 0.376),
  ('RTLK', '≤ 0.2'),
  ('RVID', '≤ 0.2'),
  ('RLQT', 0.946),
  ('KHTD', '≤ 0.2'),
  ('RLLT', 0.961),
  ('RLQK', '≤ 0.2'),
  ('THPF', '≤ 0.2'),
  ('RTLF', 0.267);
